Test: small-molecule microarray binders of probe aWnt5a, primary screen, biochemical, biotinylated probe, 635/667 nm fluorescence (AID 1113);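 also: score merges 667 nm fluorescence intensity with signal-to-noise per printed feature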
Conditions: higher = more signal
Note to self: values exactly at -0.03 are Fulfilled. So composite z-score at or above -0.03 is Fulfilled, below is Not fulfilled.

Below, 5 molecules whose answers are already recorded.
{"molecule": "COc1cccc(C)c1NC(=O)O[C@H]1[C@H](OC(=O)Nc2ccccc2-c2ccccc2)[C@@H](OC(=O)Nc2ccccc2-c2ccccc2)[C@@H](OC)O[C@@H]1CO", "category.label": "Not fulfilled"}
{"molecule": "[N-]=[N+]=NCc1ccccc1[C@H]1OC(c2ccc(OCCCO)cc2)=N[C@@]1(CCS(=O)(=O)c1ccccc1)C(=O)O", "category.label": "Not fulfilled"}
{"molecule": "C=CCC(OC(C)=O)[C@@H]1[C@@H](N(Cc2ccc(-c3ccccc3)cc2)C(=O)Cc2ccc(OC)cc2)c2cc(OCCCO)ccc2N1C(=O)Cc1ccc(OC)cc1 (stereo partly drawn)", "category.label": "Fulfilled"}
{"molecule": "COC(=O)C(CC#Cc1ccc2c(c1)[C@]1(C(=O)N2)[C@H](c2ccccc2OCCO)N2[C@H](c3ccccc3)[C@H](c3ccccc3)OC(=O)[C@H]2[C@@H]1C(=O)N1CCN(c2ncccn2)CC1)C(=O)OC", "category.label": "Not fulfilled"}
{"molecule": "O=C1C[C@@](C(=O)NCC(F)(F)F)(c2ccc([N+](=O)[O-])cc2)[C@@H](c2ccc(CO)cc2I)N1CC12CC3CC(CC(C3)C1)C2", "category.label": "Not fulfilled"}

Please indicate if the recorded composite z-score for COC(=O)[C@@]1(Cc2ccccc2)[C@H]2c3cc(C(=O)N(C)C)n(Cc4ccc(Cl)c(C(F)(F)F)c4)c3C[C@H]2CN1C(=O)c1ccccc1 meets or exceeds -0.03.
Fulfilled

Quick check: does COc1ccc(C#Cc2ccc3c(c2)[C@]2(C(=O)N3)[C@H](c3ccccc3OCCO)N3[C@H](c4ccccc4)[C@H](c4ccccc4)OC(=O)[C@H]3[C@@H]2C(=O)NC[C@H](O)c2ccccc2)cc1 have composite z-score greater than or equal to -0.03?
Not fulfilled

Where do the numbers come from? From PubChem BioAssay.
